// reported TGI for each item listed
System: A549 NSCLC
EXPERIMENT_DESCRIPTION: NCI tumour cell line growth inhibition, 48 h
PROPERTY: TGI

>>> observed("O=C1CSC(c2ccc(-c3nc4ccccc4[nH]3)cc2)=N1")
"> 50 µM"
>>> observed("O=C1C(C(c2ccc([N+](=O)[O-])cc2)N2CCOCC2)=C(O)C(c2ccccc2)N1c1ccccc1 (stereo not given)")
"> 10 µM"
>>> observed("Nc1ncnc2c1ncn2CCCC(c1ccccc1)P(=O)(O)O (stereo not given)")
"> 100 µM"
>>> observed("CC(=Nc1ccccc1)C1=C(O)C(Cc2cccc(F)c2)NC1=O (stereo not given)")
"> 100 µM"
>>> observed("COC1=CC(=O)C(Br)=CC1=O")
"> 100 µM"
>>> observed("C=C1C(=O)O[C@H]2[C@H]1CC/C(Cn1cc(Cc3c[nH]c4ccccc34)nn1)=C\\CC[C@@]1(C)O[C@@H]21")
"23.5 µM"
>>> observed("O=C(OCC1CCCN2CCCCC12)c1cccnc1 (stereo not given)")
"> 100 µM"
>>> observed("COC1=CC(=O)C2C(C1=O)[C@@H]1c3ccccc3OC(C)(C)[C@H]21 (stereo not given in full)")
"> 100 µM"
>>> observed("COC(=O)CCCC1(CCCC(=O)OC)CCCCCCCCC(CCCC(=O)OC)(CCCC(=O)OC)C(=O)C1=O")
"29.9 µM"
>>> observed("CC/C=C\\C[C@H](O)C/C=C1/C(=O)C=C[C@@H]1C/C=C\\CCCC(=O)OC(C)C")
"5.88 µM"
